target: human GLP-1R receptor (Homo sapiens, UniProt P43220, L260F); experiment: CHOK1 GLP-1R cAMP Assay; details: CHO-K1 cell line stably expressing human GLP-1R; HTRF cAMP detection
Sequence (P43220 24-463 L260F): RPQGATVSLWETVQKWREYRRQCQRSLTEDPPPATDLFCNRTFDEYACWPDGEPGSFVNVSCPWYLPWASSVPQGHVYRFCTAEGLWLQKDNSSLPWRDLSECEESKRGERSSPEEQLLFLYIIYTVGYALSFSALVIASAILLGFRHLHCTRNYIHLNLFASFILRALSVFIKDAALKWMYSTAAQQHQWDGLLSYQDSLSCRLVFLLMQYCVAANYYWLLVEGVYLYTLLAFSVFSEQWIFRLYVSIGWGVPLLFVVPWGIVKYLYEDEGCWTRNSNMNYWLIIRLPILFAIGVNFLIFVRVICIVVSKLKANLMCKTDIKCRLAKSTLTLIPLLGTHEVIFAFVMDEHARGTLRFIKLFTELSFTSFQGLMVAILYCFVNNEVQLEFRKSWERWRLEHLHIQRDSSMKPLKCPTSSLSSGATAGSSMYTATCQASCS
pEC50: −log10 of the molar value.
assay-metric: pEC50

>>> numeric_value("C[C@]1(c2ccc(Cl)cn2)Oc2cccc(N3CCN(Cc4nc5c(F)cc(C(=O)O)cc5n4CC4(C#N)CC4)[C@H]4COC[C@H]43)c2O1 (single isomer, unassigned) [Example 22b]")
6.77
>>> numeric_value("C[C@]1(c2ccc(Cl)cn2)Oc2cccc(N3CCN(Cc4nc5c(F)cc(C(=O)O)cc5n4C[C@@H]4CCCO4)[C@H]4COC[C@H]43)c2O1 (single isomer, unassigned) [Example 12b]")
7.21
>>> numeric_value("C[C@]1(c2ccc(Cl)cc2F)Oc2cccc(N3CCN(Cc4nc5c(F)cc(C(=O)O)cc5n4C[C@@H]4CCO4)[C@H]4COC[C@H]43)c2O1 (single isomer, unassigned) [Example 16c]")
6.77

1 = COc1cc(C(=O)O)cc2c1nc(CN1CCN(c3cccc4c3O[C@@](C)(c3ccc(Cl)cn3)O4)[C@@H]3COC[C@@H]31)n2C[C@@H]1CCCO1 (single isomer, unassigned) [Example 2b]
2 = C[C@]1(c2ccc(Cl)cc2F)Oc2cccc(N3CCN(Cc4nc5ccc(C(=O)O)cc5n4CCn4cccn4)[C@H]4COC[C@H]43)c2O1 (single isomer, unassigned) [Example 7a]
Ask: From the items above, decide which of 1 and 2 has the lower pEC50 reading. Bench note: the answer is the label of the chosen record.
Result: 1
